# Test system: Hepatotoxicity
# experiment description: FDA HLAED, alkaline phosphatase increase
# measurement setup: human
Listed below: Alkaline Phosphatase Increase - Index Value values for each entry.
Please reply with the value in numeric form only.

The cases that follow already have their Alkaline Phosphatase Increase - Index Value on record.
1. Clc1ccc(CCC(Cn2ccnc2)Sc2c(Cl)cccc2Cl)cc1 (stereo unspecified) [BUTOCONAZOLE] | 0.2
2. C[C@@H]1C[C@H]2[C@@H]3C[C@H](F)C4=CC(=O)C=C[C@]4(C)[C@@]3(F)[C@@H](O)C[C@]2(C)[C@@]1(O)C(=O)SCF [FLUTICASONE] | 0
3. NCCCC(O)(P(=O)(O)O)P(=O)(O)O [ALENDRONIC ACID] | 2.5
4. CC(=O)O[C@H]1C[C@@H]2CC[C@@H]3[C@H](CC[C@@]4(C)[C@H]3C[C@H]([N+]3(C)CCCCC3)[C@@H]4OC(C)=O)[C@@]2(C)C[C@@H]1N1CCCCC1.[Br-] [VECURONIUM BROMIDE] | 0
5. COc1cc([C@@H]2c3cc4c(cc3[C@@H](O[C@@H]3O[C@@H]5CO[C@@H](C)O[C@H]5[C@H](O)[C@H]3O)[C@H]3COC(=O)[C@H]23)OCO4)cc(OC)c1O [ETOPOSIDE] | 0.8
6. C=C1c2c(Cl)ccc(O)c2C(=O)C2=C(O)[C@]3(O)C(=O)C(C(N)=O)=C(O)[C@@H](N(C)C)[C@@H]3[C@@H](O)[C@H]12 [MECLOCYCLINE] | 0
7. Cc1cccc(C)c1NC(=O)C(C)N (stereo unspecified) [TOCAINIDE] | 1.7
8. CC(C)NCC(O)COc1ccc(CCOCC2CC2)cc1 (stereo unspecified) [BETAXOLOL] | 0
9. Cn1cnc([N+](=O)[O-])c1Sc1ncnc2nc[nH]c12 [AZATHIOPRINE] | 4.5
10. CN(C/C=C/c1ccccc1)Cc1cccc2ccccc12 [NAFTIFINE] | 0

Item under review: CC(c1cc2ccccc2s1)N(O)C(N)=O (stereo unspecified) [ZILEUTON] . Reported Alkaline Phosphatase Increase - Index Value?
29.7

Item under review: Cc1cn([C@H]2C=C[C@@H](CO)O2)c(=O)[nH]c1=O [STAVUDINE] . Reported Alkaline Phosphatase Increase - Index Value?
2.4

Item under review: C=CC1=C(C(=O)O)N2C(=O)[C@@H](NC(=O)/C(=N\OCC(=O)O)c3csc(N)n3)[C@H]2SC1 [CEFIXIME] . Reported Alkaline Phosphatase Increase - Index Value?
13.7

Item under review: CC(C)COCC(CN(Cc1ccccc1)c1ccccc1)N1CCCC1 (stereo unspecified) [BEPRIDIL] . Reported Alkaline Phosphatase Increase - Index Value?
0

Item under review: C#C[C@]1(O)CC[C@H]2[C@@H]3CCC4=CC(=O)CC[C@@H]4[C@H]3CC[C@@]21CC [LEVONORGESTREL] . Reported Alkaline Phosphatase Increase - Index Value?
34

Item under review: Cc1cccc(Nc2ccncc2S(=O)(=O)NC(=O)NC(C)C)c1 [TORSEMIDE] . Reported Alkaline Phosphatase Increase - Index Value?
0

* * *

# System: Hepatotoxicity
# experiment description: FDA HLAED, lactate dehydrogenase (LDH) increase
# measurement setup: human
quantity name: LDH Increase - Activity Score

1. O=C(O)COCCN1CCN(C(c2ccccc2)c2ccc(Cl)cc2)CC1 (stereo not drawn) [CETIRIZINE] | Inactive
2. Nc1nc2c(ncn2COCCO)c(=O)[nH]1 [ACYCLOVIR] | Inactive
3. CC(=O)O[C@@]12CO[C@@H]1C[C@H](O)[C@@]1(C)C(=O)[C@H](O)C3=C(C)[C@@H](OC(=O)[C@H](O)[C@@H](NC(=O)OC(C)(C)C)c4ccccc4)C[C@@](O)([C@@H](OC(=O)c4ccccc4)[C@H]21)C3(C)C.O.O.O [DOCETAXEL] | Inactive

* * *

# System: Hepatotoxicity
# experiment description: FDA HLAED, liver enzyme composite activity
# measurement setup: human
Listed below: Composite Activity - Active values for each entry.
Please reply with the value in numeric form only.

The cases that follow already have their Composite Activity - Active on record.
1) Oc1ncnc2[nH]ncc12 | 4
2) C[C@]12CC[C@@H]3c4ccc(OC(=O)c5ccccc5)cc4CC[C@H]3[C@@H]1CC[C@@H]2O [ESTRADIOL BENZOATE] | 0
3) COc1cc([C@@H]2c3cc4c(cc3[C@H](O)[C@H]3COC(=O)[C@H]23)OCO4)cc(OC)c1OC | 0

Attention now turns to another entry.
Item under review: C[C@H]1C[C@@H]2[C@H]([C@@H](O)C[C@@]3(C)[C@H]2CC[C@]3(O)C(=O)CO)[C@@]2(C)C=CC(=O)C=C12 . Reported Composite Activity - Active?
0

* * *

# Test system: Hepatotoxicity
# experiment description: FDA HLAED, lactate dehydrogenase (LDH) increase
# measurement setup: human
quantity name: LDH Increase - Activity Score

The cases that follow already have their LDH Increase - Activity Score on record.
1) CC[C@H]1OC(=O)[C@H](C)[C@@H](O[C@H]2C[C@@](C)(OC)[C@@H](O)[C@H](C)O2)[C@H](C)[C@@H](O[C@@H]2O[C@H](C)C[C@H](N(C)C)[C@H]2O)[C@](C)(O)C[C@@H](C)CN(C)[C@H](C)[C@@H](O)[C@]1(C)O | Inactive
2) CCOC(=O)C1=C(COCCN)NC(C)=C(C(=O)OC)C1c1ccccc1Cl (configuration not stated) | Inactive
3) CCN1CCN(C(=O)N[C@@H](C(=O)N[C@@H]2C(=O)N3C(C(=O)O)=C(CSc4nnnn4C)CS[C@H]23)c2ccc(O)cc2)C(=O)C1=O | Inactive
4) Cc1ccccc1N1CCN(CCc2nnc3n2CCCC3)CC1 | Inactive
5) COc1cc([C@@H]2c3cc4c(cc3[C@H](O)[C@H]3COC(=O)[C@H]23)OCO4)cc(OC)c1OC | Inactive

Attention now turns to another entry.
Item under review: Brc1c(NC2=NCCN2)ccc2nccnc12 . Reported LDH Increase - Activity Score?
Inactive

* * *

Listed below: Composite Activity - Active values for each entry.
# System: Hepatotoxicity
# experiment description: FDA HLAED, liver enzyme composite activity
# measurement setup: human
Please reply with the value in numeric form only.

Item under review: CCCC1O[C@@H]2C[C@H]3[C@@H]4CCC5=CC(=O)C=C[C@]5(C)[C@H]4[C@@H](O)C[C@]3(C)[C@]2(C(=O)CO)O1 (stereo partly drawn) [BUDESONIDE] . Reported Composite Activity - Active?
0

Item under review: NC[C@H]1O[C@H](O[C@H]2[C@H](O)[C@@H](O[C@H]3O[C@H](CO)[C@@H](O)[C@H](N)[C@H]3O)[C@H](N)C[C@@H]2N)[C@H](N)C[C@@H]1O . Reported Composite Activity - Active?
0

Item under review: COc1cccc(C2(O)CCCCC2CN(C)C)c1 (stereo not drawn) . Reported Composite Activity - Active?
0

* * *

# Tested on: Hepatotoxicity
# experiment description: FDA HLAED, gamma-glutamyl transferase (GGT) increase
# measurement setup: human
quantity name: GGT Increase - Number of Reports

The cases that follow already have their GGT Increase - Number of Reports on record.
1. CC[C@@H]1C(=O)OC[C@@H]1Cc1cncn1C | < 4
2. Fc1ccccc1C1=NCC(=S)N(CC(F)(F)F)c2ccc(Cl)cc21 | < 4
3. CC(=O)O[C@H]1C[C@@H]2CC[C@@H]3[C@H](CC[C@@]4(C)[C@H]3C[C@H](N3CC[N+](C)(C)CC3)[C@@H]4OC(C)=O)[C@@]2(C)C[C@@H]1N1CC[N+](C)(C)CC1.[Br-].[Br-] [PIPECURONIUM BROMIDE] | < 4
4. CN1CCCC(n2nc(Cc3ccc(Cl)cc3)c3ccccc3c2=O)CC1 (stereo not given) | < 4
5. COc1cc(CC2c3c(cc(OC)c(OC)c3OC)CC[N+]2(C)CCCOC(=O)CCC(=O)OCCC[N+]2(C)CCc3cc(OC)c(OC)c(OC)c3C2Cc2cc(OC)c(OC)c(OC)c2)cc(OC)c1OC.[Cl-].[Cl-] (stereo not given) [DOXACURIUM CHLORIDE] | < 4

Item under review: CCN[C@@H]1C[C@H](N)[C@@H](O[C@H]2OC(CN)=CC[C@H]2N)[C@H](O)[C@H]1O[C@H]1OC[C@](C)(O)[C@H](NC)[C@H]1O . Reported GGT Increase - Number of Reports?
< 4

Item under review: O=C(O)COCCN1CCN(C(c2ccccc2)c2ccc(Cl)cc2)CC1 (stereo not given) . Reported GGT Increase - Number of Reports?
< 4

Item under review: O=P1(NCCCl)OCCCN1CCCl (stereo not given) [IFOSFAMIDE] . Reported GGT Increase - Number of Reports?
< 4

* * *

# System: Hepatotoxicity
# experiment description: FDA HLAED, lactate dehydrogenase (LDH) increase
# measurement setup: human
quantity name: LDH Increase - Activity Score

The cases that follow already have their LDH Increase - Activity Score on record.
1. O=C(O)c1cn(C2CC2)c2cc(N3CCNCC3)c(F)cc2c1=O | Inactive
2. C[C@]12CC[C@@H]3c4ccc(O)cc4CC[C@H]3[C@@H]1CC[C@@H]2OC(=O)CCC1CCCC1 [ESTRADIOL CYPIONATE] | Inactive
3. CCCC(=O)Nc1ccc(OCC(O)CNC(C)C)c(C(C)=O)c1 (stereo not drawn) | Marginally Active
4. CCC1(c2ccc(N)cc2)CCC(=O)NC1=O (stereo not drawn) [AMINOGLUTETHIMIDE] | Inactive
5. Clc1ccc2nsnc2c1NC1=NCCN1 | Inactive
6. CCCCCCC(=O)O[C@H]1CC[C@H]2[C@@H]3CCc4cc(O)ccc4[C@H]3CC[C@]12C [ESTRADIOL ENANTHATE] | Inactive

Lab note: need LDH Increase - Activity Score with Hepatotoxicity for entry C[C@@H]1C[C@H]2[C@H]3[C@H]([C@@H](O)C[C@]2(C)[C@@]1(O)C(=O)CO)[C@@]1(C)C=CC(=O)C=C1C[C@H]3Cl , please look it up.
Inactive

Lab note: need LDH Increase - Activity Score with Hepatotoxicity for entry CC(c1cc2ccccc2s1)N(O)C(N)=O (stereo not drawn) , please look it up.
Inactive

Lab note: need LDH Increase - Activity Score with Hepatotoxicity for entry COc1cc(C(=O)NS(=O)(=O)c2ccccc2C)ccc1Cc1cn(C)c2ccc(NC(=O)OC3CCCC3)cc12 , please look it up.
Marginally Active

Lab note: need LDH Increase - Activity Score with Hepatotoxicity for entry CC(C)(C#N)c1cc(Cn2cncn2)cc(C(C)(C)C#N)c1 , please look it up.
Inactive

Lab note: need LDH Increase - Activity Score with Hepatotoxicity for entry O=C(c1ccccc1)c1ccc2n1CCC2C(=O)O (stereo not drawn) , please look it up.
Inactive

Lab note: need LDH Increase - Activity Score with Hepatotoxicity for entry COc1cccc(C2(O)CCCCC2CN(C)C)c1 (stereo not drawn) , please look it up.
Inactive

Lab note: need LDH Increase - Activity Score with Hepatotoxicity for entry CC1(C)O[C@@H]2C[C@H]3[C@@H]4C[C@H](F)C5=CC(=O)C=C[C@]5(C)[C@H]4[C@@H](O)C[C@]3(C)[C@]2(C(=O)CO)O1 [FLUNISOLIDE] , please look it up.
Inactive

This collection of values is drawn from ChEMBL document CHEMBL1697781.
